Biological target: Amine oxidase [flavin-containing] A (Homo sapiens, UniProt P21397)
Sequence (P21397 whole entry): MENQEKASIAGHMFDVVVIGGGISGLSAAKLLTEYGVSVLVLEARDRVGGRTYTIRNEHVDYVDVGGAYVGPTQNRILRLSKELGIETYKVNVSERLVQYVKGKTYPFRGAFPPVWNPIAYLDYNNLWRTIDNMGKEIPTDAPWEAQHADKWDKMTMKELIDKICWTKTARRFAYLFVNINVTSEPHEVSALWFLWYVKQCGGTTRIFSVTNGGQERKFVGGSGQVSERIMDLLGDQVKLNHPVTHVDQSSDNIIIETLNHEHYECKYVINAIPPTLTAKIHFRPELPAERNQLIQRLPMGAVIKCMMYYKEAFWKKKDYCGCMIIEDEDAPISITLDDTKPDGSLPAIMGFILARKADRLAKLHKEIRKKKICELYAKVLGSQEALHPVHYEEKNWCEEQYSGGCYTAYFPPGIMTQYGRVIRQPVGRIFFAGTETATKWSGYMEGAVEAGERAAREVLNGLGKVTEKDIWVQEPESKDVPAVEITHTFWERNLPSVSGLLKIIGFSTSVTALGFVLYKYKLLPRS
Test: Inhibition human liver MAOA activity
The following compounds are shown together with reported Ki values.
Write down the numeric answer in µM and omit the unit.

Cc1cc(-c2ccc(N3C[C@H](CNc4ccon4)OC3=O)cc2F)on1 | 0.42

--- query ---
Please list Ki recorded for the compound Cc1cn(C[C@H]2CN(c3ccc(-c4cc(C)no4)c(F)c3)C(=O)O2)nn1
22.6
